measurement_target: Nav1.6 (Homo sapiens, UniProt Q9UQD0)
Sequence (Q9UQD0 whole entry): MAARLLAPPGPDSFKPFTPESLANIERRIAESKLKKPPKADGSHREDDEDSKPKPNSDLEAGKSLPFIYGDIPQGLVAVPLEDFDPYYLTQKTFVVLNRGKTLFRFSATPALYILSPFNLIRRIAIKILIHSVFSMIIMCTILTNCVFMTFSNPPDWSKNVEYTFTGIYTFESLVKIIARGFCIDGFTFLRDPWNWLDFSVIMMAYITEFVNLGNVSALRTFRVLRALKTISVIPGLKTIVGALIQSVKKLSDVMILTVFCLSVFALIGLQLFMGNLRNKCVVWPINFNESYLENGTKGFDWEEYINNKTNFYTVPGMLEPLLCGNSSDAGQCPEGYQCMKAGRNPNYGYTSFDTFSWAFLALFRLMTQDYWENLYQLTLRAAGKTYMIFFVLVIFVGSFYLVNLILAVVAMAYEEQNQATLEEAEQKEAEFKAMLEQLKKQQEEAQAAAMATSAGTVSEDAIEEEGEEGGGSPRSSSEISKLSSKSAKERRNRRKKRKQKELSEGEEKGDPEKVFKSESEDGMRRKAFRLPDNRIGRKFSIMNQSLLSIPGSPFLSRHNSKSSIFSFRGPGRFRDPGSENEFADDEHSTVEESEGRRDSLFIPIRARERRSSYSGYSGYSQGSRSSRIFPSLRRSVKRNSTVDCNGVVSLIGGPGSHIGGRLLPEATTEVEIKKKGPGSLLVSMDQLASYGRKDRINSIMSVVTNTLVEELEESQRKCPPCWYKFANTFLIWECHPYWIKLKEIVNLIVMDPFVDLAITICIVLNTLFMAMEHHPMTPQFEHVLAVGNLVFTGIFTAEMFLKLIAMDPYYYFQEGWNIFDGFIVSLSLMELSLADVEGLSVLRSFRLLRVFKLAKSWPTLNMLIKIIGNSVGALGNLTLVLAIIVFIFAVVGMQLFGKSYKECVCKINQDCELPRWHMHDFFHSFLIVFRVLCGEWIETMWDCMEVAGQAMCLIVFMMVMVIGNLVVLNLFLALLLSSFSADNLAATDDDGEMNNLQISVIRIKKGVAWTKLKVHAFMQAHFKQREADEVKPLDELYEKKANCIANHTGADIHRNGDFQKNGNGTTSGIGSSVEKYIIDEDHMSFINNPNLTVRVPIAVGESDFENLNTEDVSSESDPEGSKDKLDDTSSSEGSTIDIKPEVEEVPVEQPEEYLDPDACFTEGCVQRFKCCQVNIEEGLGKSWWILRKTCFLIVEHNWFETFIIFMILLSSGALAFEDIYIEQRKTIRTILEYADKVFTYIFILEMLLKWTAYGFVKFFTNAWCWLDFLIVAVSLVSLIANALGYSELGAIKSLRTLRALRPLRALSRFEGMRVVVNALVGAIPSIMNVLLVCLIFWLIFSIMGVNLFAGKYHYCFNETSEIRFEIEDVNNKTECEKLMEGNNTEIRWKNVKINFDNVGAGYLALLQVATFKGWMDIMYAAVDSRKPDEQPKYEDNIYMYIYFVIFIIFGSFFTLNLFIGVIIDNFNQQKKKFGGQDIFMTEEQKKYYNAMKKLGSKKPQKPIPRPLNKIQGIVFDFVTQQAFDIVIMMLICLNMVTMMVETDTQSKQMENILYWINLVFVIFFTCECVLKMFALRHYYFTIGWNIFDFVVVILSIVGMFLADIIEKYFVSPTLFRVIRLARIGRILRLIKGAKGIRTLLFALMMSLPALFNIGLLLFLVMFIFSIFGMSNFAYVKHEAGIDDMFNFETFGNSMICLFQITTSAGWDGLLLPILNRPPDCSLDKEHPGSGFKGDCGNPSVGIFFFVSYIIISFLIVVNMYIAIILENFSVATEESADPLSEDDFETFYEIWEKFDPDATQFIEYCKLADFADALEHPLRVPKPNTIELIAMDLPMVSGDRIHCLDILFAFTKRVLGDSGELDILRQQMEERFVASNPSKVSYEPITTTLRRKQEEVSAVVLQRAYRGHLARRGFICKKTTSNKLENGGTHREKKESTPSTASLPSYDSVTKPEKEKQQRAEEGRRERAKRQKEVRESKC
protocol_notes: % block of Nav1.6 at 100 μM and IC50 (NaV1.6)
Type: cell-based
details: 100 μM compound
Counter-ions that a name gives are not always drawn.
measured_property: inhibition at 100 µM (%)
Kindly provide the numeric value in % only, without the unit symbol.

Give the value of inhibition at 100 µM reported for the following: Clc1ccccc1-c1nc2ccccc2[nH]1
75

State its inhibition at 100 µM: FC(F)(F)c1ccccc1-c1nc2ccccc2[nH]1
20

Please list inhibition at 100 µM recorded for the compound FC(F)(F)c1ccc(-c2nc3ccccc3[nH]2)cc1
15

Dear colleague, please send me the reported inhibition at 100 µM for Cc1nc(-c2ccc(Cl)cc2)[nH]c1-c1ccccc1 [MV1502, hydrochloride] when you can.
95

Provide measured inhibition at 100 µM value, entry: O=[N+]([O-])c1ccc(-c2nc3ccccc3[nH]2)cc1
20

Return value of inhibition at 100 µM for input CCCc1nc(-c2cccc(OC)c2)[nH]c1C [MV1369, OXALATE] , no commentary.
100

For the compound Cc1ccc(-c2nc3ccccc3[nH]2)cc1 , report inhibition at 100 µM.
30

Return reported inhibition at 100 µM. Input compound: Clc1cccc(-c2ncc[nH]2)c1 [MV1354, 2-(3-CHLORO-PHENYL)-1H-IMIDAZOLE OXALATE]
20

Determine its reported inhibition at 100 µM: O=C(O)c1ccc2nc(-c3ccccc3)[nH]c2c1
0

Please indicate inhibition at 100 µM recorded for COc1ccc(-c2nc(-c3cccc(NC(=O)c4ccc(Cl)cc4)c3)c[nH]2)cc1 [MV1312, HYDROCHLORIDE]
85

Identify inhibition at 100 µM associated with the compound Cc1cccc(-c2nc3ccccc3[nH]2)c1
65

Output inhibition at 100 µM of COc1ccc(-c2nc(C)c(-c3ccccc3)[nH]2)cc1O [MV1508, hydrochloride]
90

Output inhibition at 100 µM of COc1ccc(-c2ncc[nH]2)cc1 [MV1350, OXALATE]
25

Tell me measured inhibition at 100 µM for Clc1ccccc1-c1ncc[nH]1 [MV1355, 2-(2-CHLORO-PHENYL)-1H-IMIDAZOLE OXALATE] please.
0

Answer with the recorded inhibition at 100 µM of Cc1cnc(-c2cccc(Cl)c2)[nH]1 [MV1360, OXALATE] only.
70

State its inhibition at 100 µM for this compound: COc1cccc(-c2nc3ccccc3[nH]2)c1
40

// Input: COc1ccc(-c2nc(C)c(-c3ccccc3)[nH]2)cc1 [MV1501, hydrochloride] . Output its inhibition at 100 µM only.
90

Give the value of inhibition at 100 µM reported for the following: COc1ccc(C(=O)Nc2cccc(-c3c[nH]c(-c4ccccc4)n3)c2)cc1 [MV1309, HYDROCHLORIDE]
75

Supply measured inhibition at 100 µM of O=[N+]([O-])c1ccc2nc(-c3ccccc3)[nH]c2c1 in your reply.
70

Output measured inhibition at 100 µM for this item: O=C(O)c1ccccc1-c1nc2ccccc2[nH]1
5

Tell me its inhibition at 100 µM given Cc1ccccc1-c1nc2ccccc2[nH]1 as the entry.
25

Name the recorded inhibition at 100 µM of the compound listed here: Cc1cnc(-c2ccccc2Cl)[nH]1 [MV1361, OXALATE]
0

Return reported inhibition at 100 µM. Input compound: COc1ccc(-c2nc3ccccc3[nH]2)cc1
70

Name the recorded inhibition at 100 µM of the item O=C(Nc1ccc(-c2c[nH]c(-c3ccccc3)n2)cc1)c1ccccc1 [MV1301, HYDROCHLORIDE] in your answer.
0

// Input: CCCc1nc(-c2ccccc2OC)[nH]c1C [MV1370, OXALATE] . Output its inhibition at 100 µM only.
90

Give a short answer stating reported inhibition at 100 µM for Cc1ccc2nc(-c3ccccc3)[nH]c2c1 .
55

Identify the reported inhibition at 100 µM for the following entry. Clc1cccc(-c2nc3ccccc3[nH]2)c1
65

# return recorded inhibition at 100 µM for entry COc1ccccc1-c1ncc(C)[nH]1 [MV1358, OXALATE]
50

Given the compound COc1ccc(-c2nc(-c3ccc(NC(=O)c4ccccc4)cc3)c[nH]2)cc1 [MV1302, HYDROCHLORIDE] , write its reported inhibition at 100 µM.
20

Tell me its inhibition at 100 µM given c1ccc(-c2nc3ccccc3[nH]2)cc1 as the entry.
30

Let me know recorded inhibition at 100 µM for Cc1cnc(-c2ccc(Cl)cc2)[nH]1 [MV1359, OXALATE] , thanks.
75

Specify inhibition at 100 µM for COc1cccc(-c2nc3cc(Cl)ccc3[nH]2)c1 and stop.
85

// Input: CC(=O)Nc1ccc(-c2nc(C)c(-c3ccccc3)[nH]2)cc1 [MV1509, hydrochloride] . Output its inhibition at 100 µM only.
90

Dear colleague, please send me the reported inhibition at 100 µM for COc1ccc(-c2ncc(C)[nH]2)cc1 [MV1356, OXALATE] when you can.
65

Identify measured inhibition at 100 µM associated with O=C(Nc1ccc(-c2c[nH]c(-c3ccccc3)n2)cc1)c1ccc(Cl)cc1 [MV1305, HYDROCHLORIDE]
50
